tested on: SF-539; test: NCI tumour cell line growth inhibition, 48 h
Activity calls are given as the source filed them. Rule as the data show it: active = GI50 up to about 1.1 µM and inactive = higher.
Outcome codes: T (active), F (inactive)

In [3]: df
Out[3]:
                                    compound  group_label
 0  C[C@@H](NC(C#N)c1ccco1)c1ccccc1 (some centres not stated)            F
 1  CCCC/C=C1/CCC(CN(C)C)C1=O (configuration not stated)            F
 2  CC[C@@]1(O)C(=O)OCc2c1cc1n(c2=O)Cc2cc3cc(O)ccc3nc2-1 [HYDROXYCAMPTOTHECIN]            T
 3  Fc1nc(-c2c3ccccc3c3sc4ccccc4n23)nc(N2CCOCCOCCOCCOCC2)n1            F
 4  N#CC(C(=O)/C(=N/NC(=O)c1ccccc1O)C(C#N)c1ccc(Br)cc1)c1ccc(Br)cc1 (configuration not stated)            F
 5  CC1=C(C(=O)Nc2ccccc2C)C(c2ccccc2)C(C(=O)Nc2ccccc2C)=C(C)N1            F
 6  COc1cc(C(=O)NNC(=O)c2cc(Br)ccc2NC(=O)c2cccs2)cc(OC)c1OC            F
 7  CCCCCNC(=O)CCCCCCCCCCCNC(=O)CCCCCCCCCCN1C=CC(=CC=C2C=CC(=O)C=C2)C=C1            F
 8      COc1ccc(/C(=N\Nc2ccccn2)c2ccccn2)cc1            T
 9  COc1ccc(NC(=O)/C(=C/c2ccc(N(CCC#N)CCC#N)cc2)NC(=O)c2cc([N+](=O)[O-])ccc2Cl)cc1            F
10  C[C@]1(O)CC(=O)c2c(c(-c3ccc4cc5c(c(O)c4c3O)C(=O)C[C@@](C)(O)C5)c3cccc(O)c3c2O)C1            F
11  CC1CCCP(=O)(c2ccccc2)CCC1 (configuration not stated)            F

---

tested on: OVCAR-5; test: NCI tumour cell line growth inhibition, 48 h
The source made the active and inactive calls. Rule as the data show it: active = GI50 up to about 1.1 µM and inactive = higher.
PROPERTY_LABEL: GI50

In [3]: df
Out[3]:
                                   compound  property_label               result
0  O=c1c2ccccc2c(=O)c2c1c1[nH]c3ccccc3c1c1c(=O)c3ccccc3c(=O)c21            GI50  > 100 µM (inactive)
1  O=C(c1ccco1)N(C(=S)N1CCN(c2ccccc2)CC1)C1CCCCC1            GI50  > 100 µM (inactive)
2  N#CC1(C#N)C2CCCCC23OC(=N)C1(C#N)C(c1ccccc1)O3 (stereo not drawn)            GI50   21.2 µM (inactive)

---

tested on: CCRF-CEM; assay: NCI tumour cell line growth inhibition, 48 h
Active and inactive are the calls of the source. Rule as the data show it: active = GI50 up to about 1.1 µM and inactive = higher.
Labels: active, inactive

COMPOUND	GROUP_LABEL
C=C1C2CC(OC(C)=O)C3(C)C(c4ccoc4)OC(=O)[C@@H](O)[C@]13OC1C[C@H](OC(C)=O)C(C)(C)[C@H](CC(=O)OC)[C@]12C (some centres undefined)	inactive
O=C(CC(O)(C(F)(F)F)C(F)(F)Cl)CC(O)(C(F)(F)F)C(F)(F)Cl (centres undefined)	inactive
O/N=C1/CCCC/C1=C/C=C/c1ccccc1	inactive
Nc1nc(N)c2nnn(C[C@H]3CC[C@@H](CO)C3)c2n1	inactive
c1ccc(CCCNc2nnnc3ccccc23)cc1	inactive
CCOC(=O)C1(C(=O)OCC)Nc2cccnc2N(C)N1	inactive
CN(C)CCNc1ccc2c(=O)n(CCN(C)C)c(=O)n3c4ccc([N+](=O)[O-])cc4c(=O)c1c23	active
O=c1[nH]cnc2c(COCCO)c[nH]c12	inactive
COc1cccc(NC(=O)CC(=O)N2N=C(C)C(/N=N\c3ccc(S(=O)(=O)c4ccc(/N=N/C5C(=O)N(C(=O)CC(=O)Nc6cccc(OC)c6)N=C5C)cc4)cc3)C2=O)c1 (centres undefined)	inactive
O=C(CC(=O)Nc1ccccc1)NNC(c1cc(/N=N/c2ccc(Br)cc2)ccc1O)P(O)O (centres undefined)	active
N#CC(C(=O)/C(=N/NC(=O)c1ccccc1O)C(C#N)c1ccc(Br)cc1)c1ccc(Br)cc1 (centres undefined)	inactive
COC(=O)C(C(=O)Cc1ccccc1[N+](=O)[O-])C(=O)OC	inactive
Cc1c(C(=O)Nc2ccccc2)nnn1-c1ccnc2cc(C(F)(F)F)ccc12	inactive
N#CC1(C#N)C2CCCCC23OC(=N)C1(C#N)C(c1ccccc1)O3 (centres undefined)	inactive
